Target: DNA polymerase kappa (Homo sapiens)
Assay: qHTS for Inhibitors of Polymerase Kappa
Conditions: purified Pol kappa, fluorescent DNA synthesis assay, 10 min; series mostly up to 107 µM
From the text: The processing and repair of DNA interstrand crosslinks (ICL) in eukaryotic cells are extremely complex, potentially involving multiple DNA repair and damage tolerance pathways, including homologous recombination, nucleotide excision repair, translesion synthesis (TLS), and cell cycle checkpoints. To that end, in a collaboration between the Oregon Health & Science University and the NIH Chemical Genomics Center a 1536-well high-throughput screen was developed. […]
Out of some 400,000 compounds screened, about 2,200 (0.55%) were called active. Another 1% or so got no clear call; they are omitted. The call rests on the fitted dose curve; in most records, active means well fitted inhibition curve with a large enough effect; inconclusive means small, poorly fitted or top-dose-only effect, or another doubt; inactive means no such curve, though single readings can be large or run the other way. Shown is part of a subset that was picked to be rich in actives.
Labels: T = active, F = inactive

{"compound": "COC1=C/C(=C/c2c(N)n3nc(CC(=O)N4CCOCC4)sc3nc2=O)C=CC1=O", "measurement.target": "DNA polymerase kappa (Homo sapiens)", "group.label": "T"}
{"compound": "C=C(C)C1CC=C(C)C(O)C1 (stereo unspecified)", "measurement.target": "DNA polymerase kappa (Homo sapiens)", "group.label": "F"}
{"compound": "CC1(C)OC2CC(=O)OC[C@@]23C1CC(=O)[C@]1(C)C3CC[C@@]2(C)C(c3ccoc3)OC(=O)C3O[C@@]321 (stereo partly specified)", "measurement.target": "DNA polymerase kappa (Homo sapiens)", "group.label": "F"}
{"compound": "Cn1cc(-c2nc3cnc(N4CCNCC4)nc3n(CCc3ccccc3)c2=O)c2ccccc21", "measurement.target": "DNA polymerase kappa (Homo sapiens)", "group.label": "F"}
{"compound": "Cc1cccc(CNc2ccnc(-c3cccnc3)n2)c1", "measurement.target": "DNA polymerase kappa (Homo sapiens)", "group.label": "F"}
{"compound": "Cc1nnc2n1N=C(c1ccc3c(c1)NC(=O)CO3)CS2", "measurement.target": "DNA polymerase kappa (Homo sapiens)", "group.label": "F"}
{"compound": "Cc1nc2cnc(N3CCN(C)CC3)nc2n(CCC#N)c1=O", "measurement.target": "DNA polymerase kappa (Homo sapiens)", "group.label": "F"}
{"compound": "C=C1C=C(C(F)F)n2ncc(C(=O)NCCc3ccccc3OC)c2N1", "measurement.target": "DNA polymerase kappa (Homo sapiens)", "group.label": "F"}
{"compound": "CC1(C)OC2CO[C@]3(COS(N)(=O)=O)OC(C)(C)OC3C2O1 (stereo partly specified)", "measurement.target": "DNA polymerase kappa (Homo sapiens)", "group.label": "F"}
{"compound": "CN(Cc1ccccc1)c1ccc(/C=C/c2ccnc3ccccc23)cc1", "measurement.target": "DNA polymerase kappa (Homo sapiens)", "group.label": "F"}
{"compound": "O=C(c1ccncc1)N1CCC2(CCN(Cc3cc(C(F)(F)F)cc(C(F)(F)F)c3)CC2)CC1", "measurement.target": "DNA polymerase kappa (Homo sapiens)", "group.label": "F"}
{"compound": "Cc1ccc(C)c(Nc2nnc(-c3ccc(C)c(S(=O)(=O)N4CCCCC4)c3)c3ccccc23)c1", "measurement.target": "DNA polymerase kappa (Homo sapiens)", "group.label": "T"}
{"compound": "NC(=O)[C@H]1CC2(CC(c3cccc(NC(=O)[C@H]4CCC(=O)N4)c3)=NO2)CN1C(=O)c1ccccc1C(=O)c1ccccc1 (stereo partly specified)", "measurement.target": "DNA polymerase kappa (Homo sapiens)", "group.label": "F"}
{"compound": "C[N+]1(CC(=O)c2cccs2)CCOCC1", "measurement.target": "DNA polymerase kappa (Homo sapiens)", "group.label": "F"}
{"compound": "COc1ccccc1CNc1ncncc1-c1cccc(NS(C)(=O)=O)c1", "measurement.target": "DNA polymerase kappa (Homo sapiens)", "group.label": "F"}
{"compound": "COc1ccc(NC(=O)CSc2nc3ccccc3[nH]2)cc1", "measurement.target": "DNA polymerase kappa (Homo sapiens)", "group.label": "F"}
{"compound": "NC(=O)C(=O)N/N=C/c1ccc([N+](=O)[O-])o1", "measurement.target": "DNA polymerase kappa (Homo sapiens)", "group.label": "F"}
{"compound": "O=[N+]([O-])c1cc(-c2nc(-c3ccccc3)no2)ccc1NCc1ccco1", "measurement.target": "DNA polymerase kappa (Homo sapiens)", "group.label": "F"}
{"compound": "CC(C)(C)c1ccc(C(=O)C[n+]2cccc3cc(Cl)ccc32)cc1", "measurement.target": "DNA polymerase kappa (Homo sapiens)", "group.label": "F"}
{"compound": "O=C(CSc1nc(O)c(Cc2ccccc2)c(=O)[nH]1)Nc1nc2c(s1)CCCC2", "measurement.target": "DNA polymerase kappa (Homo sapiens)", "group.label": "F"}
{"compound": "C=C[C@](C)(O)CCC1C(=C)CCC2[C@@](C)(CO)CCC[C@@]12C (stereo partly specified)", "measurement.target": "DNA polymerase kappa (Homo sapiens)", "group.label": "F"}
{"compound": "CCC(=O)Nc1cccc(C2=NOC3(C2)C[C@@H](C(N)=O)N(C(=O)c2cc([N+](=O)[O-])cc([N+](=O)[O-])c2C)C3)c1 (stereo partly specified)", "measurement.target": "DNA polymerase kappa (Homo sapiens)", "group.label": "F"}
{"compound": "C=C1/C(=C\\C=C2\\CCCC3(C)C2CCC3C(C)/C=C/C(O)C2CC2)CC(O)CC1O (stereo unspecified)", "measurement.target": "DNA polymerase kappa (Homo sapiens)", "group.label": "F"}
{"compound": "Cc1ccc(Nc2nnc(-c3ccc(C)c(S(=O)(=O)N4CCCCC4)c3)c3ccccc23)cc1", "measurement.target": "DNA polymerase kappa (Homo sapiens)", "group.label": "F"}
{"compound": "CCOc1ccc(C(=O)N2CCN(CCc3ccccn3)CC2)cc1", "measurement.target": "DNA polymerase kappa (Homo sapiens)", "group.label": "F"}
{"compound": "COc1ccc(-c2ccnc(SCC(=O)N3CCOCC3)n2)cc1", "measurement.target": "DNA polymerase kappa (Homo sapiens)", "group.label": "F"}

----------
Target: DNA polymerase kappa (Homo sapiens) (UniProt Q9UBT6)
Sequence (Q9UBT6 whole entry, looked up): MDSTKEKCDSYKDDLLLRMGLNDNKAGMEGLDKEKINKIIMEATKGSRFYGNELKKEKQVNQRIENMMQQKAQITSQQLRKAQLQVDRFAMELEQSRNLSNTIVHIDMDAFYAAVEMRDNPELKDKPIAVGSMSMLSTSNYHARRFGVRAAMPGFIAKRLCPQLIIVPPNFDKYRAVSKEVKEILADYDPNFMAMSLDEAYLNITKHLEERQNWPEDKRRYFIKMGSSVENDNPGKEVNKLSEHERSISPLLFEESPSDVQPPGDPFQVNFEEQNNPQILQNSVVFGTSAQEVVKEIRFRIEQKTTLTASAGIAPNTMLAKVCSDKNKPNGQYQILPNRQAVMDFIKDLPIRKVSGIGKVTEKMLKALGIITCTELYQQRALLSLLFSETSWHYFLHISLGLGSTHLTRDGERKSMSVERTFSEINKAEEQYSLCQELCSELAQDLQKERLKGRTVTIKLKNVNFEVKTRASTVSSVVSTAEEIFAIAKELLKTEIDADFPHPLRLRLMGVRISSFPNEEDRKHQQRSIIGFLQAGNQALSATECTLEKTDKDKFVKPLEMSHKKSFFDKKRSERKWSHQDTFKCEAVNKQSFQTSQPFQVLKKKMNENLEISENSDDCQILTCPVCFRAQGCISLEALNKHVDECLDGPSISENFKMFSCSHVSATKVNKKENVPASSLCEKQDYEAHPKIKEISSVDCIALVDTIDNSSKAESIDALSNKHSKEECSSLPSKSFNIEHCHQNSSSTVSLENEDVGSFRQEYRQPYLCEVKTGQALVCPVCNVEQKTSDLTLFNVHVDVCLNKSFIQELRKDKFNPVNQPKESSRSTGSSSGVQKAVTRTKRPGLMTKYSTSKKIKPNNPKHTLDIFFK
Assay: qHTS for Inhibitors of Polymerase Kappa
Settings: purified Pol kappa, fluorescent DNA synthesis assay, 10 min; series mostly up to 107 µM
Description: The processing and repair of DNA interstrand crosslinks (ICL) in eukaryotic cells are extremely complex, potentially involving multiple DNA repair and damage tolerance pathways, including homologous recombination, nucleotide excision repair, translesion synthesis (TLS), and cell cycle checkpoints. To that end, in a collaboration between the Oregon Health & Science University and the NIH Chemical Genomics Center a 1536-well high-throughput screen was developed. […]
Among all 400,000 compounds or so, about 2,200 (0.55%) were called active. Not shown: some 1% with an inconclusive outcome. Calls come from the whole dose curve; as a rule, active = well fitted inhibition curve with a large enough effect; inconclusive = small, poorly fitted or top-dose-only effect, or another doubt; inactive = no such curve, though single readings can be large or run the other way. Only a selection was taken, and actives are over-represented in it overall.
Labels: t = active, f = inactive

{"compound": "Cc1cc(/C=N/Nc2ccc([N+](=O)[O-])cn2)c(C)n1-c1cccc(C(=O)O)c1", "group.label": "t"}
{"compound": "CCOC(=O)c1cc2cc(-c3c(C(=O)OCC)oc4cc(O)cc(O)c4c3=O)ccc2o1", "group.label": "f"}
{"compound": "COc1ccccc1CNc1ncncc1-c1cccnc1", "group.label": "f"}
{"compound": "COCCNC(=O)Nc1ccc2nc(-c3ccco3)c(-c3ccco3)nc2c1", "group.label": "t"}
{"compound": "COc1cc(OC)c2c(c1Cl)OC1(C2=O)C(O)=CC(=O)CC1C (configuration not stated)", "group.label": "f"}
{"compound": "CC(C)c1ccc(Cn2c(COc3ccccc3)nc3ccccc32)cc1", "group.label": "f"}
{"compound": "COc1ccc(NC(=O)COCc2cc(-c3ccco3)on2)cc1", "group.label": "f"}

All figures here come from PubChem BioAssay AID588579.
